Measurement Protocol: protein stability index of a GFP-peptide fusion (GPS, HEK-293T) (PSI 1-6); higher = more stable;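 note: 24-mer peptide tiles fused after GFP, lentivirally expressed, FACS-sorted into six equal bins by GFP/DsRed ratio, decoded by Illumina sequencing, PSI is the read-weighted mean bin number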
Condition Info: treatment: MLN4924 1 uM, 8 h; c terminus: a fixed tail appended
Catalogue of protein stability index readings, one per entry.
Answer with a bare number; do not write a unit.

Use these answered entries as a reference point.
Monomer Sequence: ERTQLRLESLEDTHIMKGEDDALS [TRIB1]
protein stability index: 5.34

Monomer Sequence: LRRSVEKYNSARADFEQKMLDSAL [FCHO1]
protein stability index: 3.35

Monomer Sequence: LQGCSSIGLRLVLEYLYTANVTLS [KLHL14]
protein stability index: 2.93

Any idea what its protein stability index is? The sequence is KNGEWGTVCDDKWDLVSASVVCRE [LOXL2] 3.8

Any idea what its protein stability index is? The sequence is FLIVTVAWAAHTRLFQVVGKTDDT [TMEM175] 3.12

Any idea what its protein stability index is? The sequence is YKYCDHENAAFKDVALVLTVLLEE [TOR1AIP2] 2.8

Any idea what its protein stability index is? The sequence is FWNFKQMWDSKKIGLRQHHCRKCG [WDFY2] 2.66

Any idea what its protein stability index is? The sequence is FSHDLTLERKCEKRSVYIDARDEE [ZC3H15] 4.64
